molecular target: recombinant human PI3Kα (Homo sapiens, UniProt P42336); construct: purchased Echelon Biosciences (Salt Lake City, UT, USA) E-2000; assay: Competitive fluorescence polarization (FP) assay, inhibition of PI3Kα; format: biochemical; settings: BEI = pIC50 (M)/MW (kDa), PI3Kα
Sequence (P42336 whole entry): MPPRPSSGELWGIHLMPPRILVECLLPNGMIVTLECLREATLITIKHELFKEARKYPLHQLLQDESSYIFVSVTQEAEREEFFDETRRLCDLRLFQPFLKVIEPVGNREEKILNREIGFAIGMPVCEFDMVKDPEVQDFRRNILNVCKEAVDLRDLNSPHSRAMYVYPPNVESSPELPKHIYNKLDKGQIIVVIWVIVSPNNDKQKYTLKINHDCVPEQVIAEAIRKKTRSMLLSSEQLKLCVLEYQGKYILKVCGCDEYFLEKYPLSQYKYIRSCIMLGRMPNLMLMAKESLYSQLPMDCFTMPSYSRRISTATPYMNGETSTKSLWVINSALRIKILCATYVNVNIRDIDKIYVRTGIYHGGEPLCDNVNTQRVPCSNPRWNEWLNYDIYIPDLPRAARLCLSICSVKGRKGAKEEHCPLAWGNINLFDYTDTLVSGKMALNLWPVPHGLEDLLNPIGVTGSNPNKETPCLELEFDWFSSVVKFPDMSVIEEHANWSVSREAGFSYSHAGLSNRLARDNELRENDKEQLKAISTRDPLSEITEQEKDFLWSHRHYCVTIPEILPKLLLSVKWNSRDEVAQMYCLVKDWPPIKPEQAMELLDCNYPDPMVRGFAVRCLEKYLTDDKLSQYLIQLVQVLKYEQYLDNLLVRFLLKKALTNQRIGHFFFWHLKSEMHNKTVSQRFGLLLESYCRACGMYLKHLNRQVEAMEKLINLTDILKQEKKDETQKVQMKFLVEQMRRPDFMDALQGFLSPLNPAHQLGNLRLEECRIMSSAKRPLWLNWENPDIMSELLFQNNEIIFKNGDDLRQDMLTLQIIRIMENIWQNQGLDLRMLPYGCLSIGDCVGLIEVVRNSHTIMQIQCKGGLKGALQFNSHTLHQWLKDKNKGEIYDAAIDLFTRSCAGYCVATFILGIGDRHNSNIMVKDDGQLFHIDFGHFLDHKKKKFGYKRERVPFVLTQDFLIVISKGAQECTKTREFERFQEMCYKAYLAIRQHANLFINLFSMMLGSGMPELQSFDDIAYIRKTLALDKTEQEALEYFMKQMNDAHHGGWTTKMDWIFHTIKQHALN
Sequence (P27986 whole entry partner): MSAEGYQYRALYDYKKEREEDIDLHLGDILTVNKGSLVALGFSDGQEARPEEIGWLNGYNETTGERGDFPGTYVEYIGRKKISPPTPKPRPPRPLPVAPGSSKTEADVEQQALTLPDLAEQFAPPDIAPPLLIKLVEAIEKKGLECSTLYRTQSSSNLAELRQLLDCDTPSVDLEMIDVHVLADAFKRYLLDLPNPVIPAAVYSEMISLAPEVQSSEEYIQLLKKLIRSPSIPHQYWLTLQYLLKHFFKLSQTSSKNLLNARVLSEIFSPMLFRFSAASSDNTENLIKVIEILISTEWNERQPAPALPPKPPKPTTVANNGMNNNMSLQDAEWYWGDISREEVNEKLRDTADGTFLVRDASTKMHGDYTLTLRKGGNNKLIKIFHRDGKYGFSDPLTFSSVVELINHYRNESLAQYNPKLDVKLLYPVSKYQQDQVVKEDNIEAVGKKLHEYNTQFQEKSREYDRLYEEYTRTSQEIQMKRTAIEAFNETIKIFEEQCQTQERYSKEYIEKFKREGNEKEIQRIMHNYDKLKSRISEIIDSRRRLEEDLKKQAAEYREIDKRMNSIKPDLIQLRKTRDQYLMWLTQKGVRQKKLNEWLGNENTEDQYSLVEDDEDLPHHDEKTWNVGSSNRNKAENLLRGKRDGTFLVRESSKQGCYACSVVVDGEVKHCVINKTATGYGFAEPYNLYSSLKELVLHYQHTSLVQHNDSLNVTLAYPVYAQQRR
Result type: Binding efficiency index (BEI)

A selection of reference data follows.
CC1CN(c2nc3ccccc3nc2S(=O)(=O)c2ccccc2)CCN1 (centres unmarked); 19.7
O=C(c1ccc(Cl)cc1)N1CCN(c2nc3ccccc3nc2S(=O)(=O)c2ccccc2)CC1; 11.3
O=S(=O)(c1ccc(Br)cc1)c1nc2ccccc2nc1N1CCN(CCCN2CCOCC2)CC1; 11.9
COc1ccc(S(=O)(=O)c2nc3ccccc3nc2N2CCN(S(C)(=O)=O)CC2)cc1; 16.5
O=S(=O)(c1ccccc1)c1nc2ccccc2nc1N1CCN(CCCN2CCOCC2)CC1; 14.0

[1] CN1CCN(c2nc3ccccc3nc2S(=O)(=O)c2ccc(Br)cc2)CC1
[2] O=S(=O)(c1ccccc1)c1nc2ccccc2nc1N1CCNCC1
Q: Sorting ascending by Binding efficiency index (BEI), which comes first: 1 or 2 ? # respond with the chosen item's label
A: 1
(1: 12.0, 2: 19.0)
